# measurement protocol: FBMN analysis of short peptides in small intestine contents and serum after oral DHG
# applied conditions: small intestine contents, 240 min after oral DHG, C57 mice; FBMN feature intensity, peptides smaller than 690 Da
Square brackets hold non-standard residues; d marks the D form. Peptide text beside a SMILES is read from it. pGlu = O=C1CC[CH](C(=O)O)N1
readout type: Peptide signal (feature intensity) in the small intestine, 240 min
Write the number on its own, no unit after it.

**Q:** Please give the measured Peptide signal (feature intensity) in the small intestine, 240 min for this molecule: CSCC[C@H](N)C(=O)O [Methionine]
**A:** 2.58E+05

**Q:** Now consider N[C@@H](Cc1c[nH]c2ccccc12)C(=O)NCC(=O)O [Trp-gly] (H-Trp-Gly-OH) and answer again.
**A:** 6.50E+05

**Q:** Now consider CC(C)[C@H](N)C(=O)N[C@H](C(=O)O)C(C)C [Val-Val] (H-Val-Val-OH) and answer again.
**A:** 0.00E+00

**Q:** Now consider CC(C)CC(NC(=O)C(NC(=O)C(N)C(C)O)C(C)C)C(=O)O (stereo not drawn) [Thr-Val-Leu] (H-Thr-Val-Leu-OH; configuration not given here) and answer again.
**A:** 1.07E+06

**Q:** Now consider CC(C)C[C@H](N)C(=O)N[C@@H](CCC(=O)O)C(=O)O [Leu-Glu] (H-Leu-Glu-OH) and answer again.
**A:** 0.00E+00

**Q:** Now consider Cc1cn([C@H]2C[C@H](O)[C@@H](CO)O2)c(=O)[nH]c1=O [Thymidine] and answer again.
**A:** 0.00E+00

**Q:** Now consider CC(C)C[C@H](NC(=O)[C@@H](N)Cc1ccccc1)C(=O)N[C@@H](CCCCN)C(=O)O [Phe-Leu-Lys] (H-Phe-Leu-Lys-OH) and answer again.
**A:** 8.08E+05

**Q:** Now consider O=C1CCC(C(=O)NC(Cc2ccc(O)cc2)C(=O)O)N1 (stereo not shown) [PyroGlu-Tyr] ([pGlu]-Tyr-OH; configuration not given here) and answer again.
**A:** 1.33E+07

**Q:** Now consider N[C@@H](CCC(=O)O)C(=O)N[C@@H](Cc1ccc(O)cc1)C(=O)O [Glu-Tyr] (H-Glu-Tyr-OH) and answer again.
**A:** 1.73E+06

**Q:** Now consider O=C(O)C(Cc1ccccc1)NC(=O)C1CCCN1 (stereo not drawn) [Pro-Phe] (H-Pro-Phe-OH; configuration not given here) and answer again.
**A:** 0.00E+00

**Q:** Now consider O=C1CCC(C(=O)NC(Cc2ccccc2)C(=O)O)N1 (stereo not shown) [PyroGlu-Phe] and answer again.
**A:** 5.69E+06

**Q:** Now consider CC(C)C[C@H](NC(=O)[C@@H](N)CO)C(=O)N[C@@H](CCCCN)C(=O)O [Ser-Leu-Lys] (H-Ser-Leu-Lys-OH) and answer again.
**A:** 4.59E+06

**Q:** Now consider CC[C@H](C)[C@H](N)C(=O)N[C@@H](Cc1ccc(O)cc1)C(=O)O [Ile-Tyr] (H-Ile-Tyr-OH) and answer again.
**A:** 0.00E+00

**Q:** Now consider CC(C)C[C@H](NC(=O)[C@@H](N)[C@@H](C)O)C(=O)O [Thr-Leu] (H-Thr-Leu-OH) and answer again.
**A:** 8.43E+06

**Q:** Now consider CC[C@H](C)[C@H](NC(=O)[C@@H](N)CC(N)=O)C(=O)O [Asn-Ile] (H-Asn-Ile-OH) and answer again.
**A:** 2.54E+06

**Q:** Now consider N[C@@H](Cc1cnc[nH]1)C(=O)N1CCC[C@H]1C(=O)O [His-Pro] and answer again.
**A:** 8.49E+06
